All figures here come from PubChem BioAssay (NCI).

Provide the reported TGI of each item.
Test system: HOP-18 NSCLC
Experiment: NCI tumour cell line growth inhibition, 48 h

Fill in: HOP-18 NSCLC TGI for Clc1cc2nc[nH]c2cc1Cl = > 100 µM

O=S(Cc1cnc2ccccc2c1)c1nc2ccccc2nc1-c1cccs1 (stereo not drawn) on HOP-18 NSCLC gives TGI = 31.7 µM

Field TGI (system: HOP-18 NSCLC) for entry COc1cccc(-c2cc(C(=O)Nc3ccc(Cl)cc3)nc(N)n2)c1 = > 100 µM

Noted TGI for CN(C(=N)c1ccccc1)c1ccccc1 , tested on HOP-18 NSCLC: > 100 µM

// compound O=C1C2c3[nH]c4ccccc4c3C3CCC(c4ccccc4)CC3C2C(=O)N1c1ccccc1 (stereo not drawn) , assay HOP-18 NSCLC, TGI value: > 100 µM

Field TGI (HOP-18 NSCLC), entry CO[C@H](C(=O)O[C@H]1C(=O)N2CCC3CCC1C32C)c1ccccc1 (stereo partly drawn) : > 100 µM

HOP-18 NSCLC data for CCOC(=O)C1Nc2ccc([N+](=O)[O-])cc2[C@H]2OCC[C@@H]12 (stereo partly drawn) ; its TGI: > 100 µM

Query CC(=O)O[C@H]1CC[C@@]2(C)C(=CC[C@@H]3C2CC[C@]2(C)C(=O)NC(=O)CC32)C1 (stereo partly drawn) on HOP-18 NSCLC; TGI returned: > 100 µM

Log: HOP-18 NSCLC, compound CC[C@@]1(O)C(=O)OCc2c1cc1n(c2=O)Cc2cc3c([N+](=O)[O-])c(O)ccc3nc2-1 , TGI = > 100 µM

Item ClCCN(CC#CCCCC#CCN(CCCl)CCCl)CCCl was tested on HOP-18 NSCLC; the reported TGI is 44.5 µM

The observed TGI for CCOC(=O)NC(=O)c1cn(CC(=O)NCC(=O)NCC(=O)N2CCN(CCn3c(C)nc(C(N)=O)c3N)CC2)c(=O)[nH]c1=O when tested with HOP-18 NSCLC stands at > 100 µM

Observed TGI, HOP-18 NSCLC, CCCCCCCCCCCCCCCCSS(C)(=O)=O : > 100 µM

HOP-18 NSCLC TGI of COc1ccc(/C=C/C(=O)c2c(-c3ccccc3)nn(C)c(=O)c2N2CCCC2)cc1 is > 100 µM

Tested on HOP-18 NSCLC, the item NC(CCCNc1ccc(O)cc1)C(=O)O (stereo not drawn) showed TGI equal to > 100 µM

Sample C=C(c1ccccc1)[C@@]1(O)CCCC[C@H]1NC(c1ccccc1)c1ccccc1 , system: HOP-18 NSCLC. Its TGI is 35.4 µM

# COC(=O)CCC(=O)Nc1cccc(C(F)(F)F)c1 with HOP-18 NSCLC: TGI is > 100 µM

With HOP-18 NSCLC as the test system, COC(=O)c1ccc(CS(=O)(=O)c2ccccc2)cc1 showed TGI of > 100 µM

Per the reported HOP-18 NSCLC data, O=C(/C=C/c1ccc[nH]1)c1ccccc1 has TGI of > 100 µM
